# study.target: human phenylalanine hydroxylase (hPAH) (Homo sapiens, UniProt P00439)
# Construct: Recombinant full-length wild-type (WT) hPAH was expressed in E. coli Top10 cells in fusion with a hexa-histidyl peptide; made in house; host or cells: E. coli Top10
# Sequence (P00439 1-452): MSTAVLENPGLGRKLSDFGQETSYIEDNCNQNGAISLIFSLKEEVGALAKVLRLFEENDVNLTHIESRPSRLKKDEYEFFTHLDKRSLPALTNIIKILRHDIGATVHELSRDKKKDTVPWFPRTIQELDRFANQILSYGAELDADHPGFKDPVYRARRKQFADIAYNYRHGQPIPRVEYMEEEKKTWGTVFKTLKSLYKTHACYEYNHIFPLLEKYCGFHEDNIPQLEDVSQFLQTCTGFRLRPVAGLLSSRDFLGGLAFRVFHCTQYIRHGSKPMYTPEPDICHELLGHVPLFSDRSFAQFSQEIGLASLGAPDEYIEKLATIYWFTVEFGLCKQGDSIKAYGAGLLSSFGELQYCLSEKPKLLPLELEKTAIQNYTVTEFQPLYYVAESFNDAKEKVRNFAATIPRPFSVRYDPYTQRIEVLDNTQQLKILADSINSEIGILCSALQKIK
# assay.name: Differential scanning fluorimetry (thermal denaturation)
# Type: binding
# experimental.setup: 100 μM compound vs 1% DMSO control; * S.D. < 0.01
# Description: Thermal denaturation profiles of recombinant hPAH were obtained by differential scanning fluorimetry (DSF) in a C1000 Touch thermal cycler equipped with a CFX96 optical reaction module (Bio-Rad; Hercules, CA, USA) as previously described. […] Fluorescence data were acquired using the FRET channel. […]
recorded.metric: ΔTm1 (regulatory domain)

Prompt: Fill in the blank: the reported ΔTm1 (regulatory domain) of CC(CCc1ccccc1)OC(=O)c1c(O)c(=O)[nH]c2ccc(OC(F)(F)F)cc12 (centres unmarked) is ____.
Completion: -10.4 ± 0.09 °C

Prompt: Similarly, CCOC(=O)[C@H](Cc1ccccc1)NC(=O)c1c(O)c(=O)[nH]c2ccc(Cl)cc12 ?
Completion: -7.8 ± 0.04 °C

Prompt: Similarly, COC(=O)[C@H](CC(C)C)NC(=O)c1c(O)c(=O)[nH]c2ccc(OC(F)(F)F)cc12 ?
Completion: -0.3 ± 0.01 °C

Prompt: Similarly, CCOC(=O)CNC(=O)c1c(O)c(=O)n(Cc2ccccc2)c2ccccc12 ?
Completion: +1.2 ± 0.01 °C

Prompt: Similarly, CC(C)(C)OC(=O)c1c(O)c(=O)[nH]c2ccc(OC(F)(F)F)cc12 ?
Completion: +1.2 ± 0.01 °C

Prompt: Similarly, COC(=O)CC[C@H](NC(=O)c1c(O)c(=O)[nH]c2ccc(OC(F)(F)F)cc12)C(=O)OC ?
Completion: +0.2 ± 0.01 °C

Prompt: Similarly, O=C(NCc1ccccc1)c1c(O)c(=O)n(Cc2ccccc2)c2ccccc12 ?
Completion: +1.4 ± 0.01 °C

Prompt: Similarly, O=C(NCc1ccccc1)c1c(O)c(=O)[nH]c2ccc(OC(F)(F)F)cc12 ?
Completion: -0.9 ± 0.01 °C

* * *

For each entry below, report its Tm1 (regulatory domain) value.
# study.target: human phenylalanine hydroxylase (hPAH) (Homo sapiens, UniProt P00439)
# Construct: Recombinant full-length wild-type (WT) hPAH was expressed in E. coli Top10 cells in fusion with a hexa-histidyl peptide; made in house; host or cells: E. coli Top10
# assay.name: Differential scanning fluorimetry (thermal denaturation)
# Assay type: binding
# experimental.setup: 100 μM compound in 1% DMSO; control 43.4 ± 0.6
Only the number, expressed in °C, is required.

Prompt: Fill in the blank: the reported Tm1 (regulatory domain) of O=C(NCCc1ccccc1)c1c(O)c(=O)[nH]c2ccc(OC(F)(F)F)cc12 [Compound 8] is ____.
Completion: 43.3

Prompt: Similarly, CCOC(=O)[C@H](Cc1ccccc1)NC(=O)c1c(O)c(=O)[nH]c2ccccc12 [Compound 1] ?
Completion: 39.4

Prompt: Similarly, CCOC(=O)[C@H](Cc1ccccc1)NC(=O)c1c(O)c(=O)[nH]c2ccc(Cl)cc12 [Compound 2] ?
Completion: 35.6

Prompt: Similarly, COC(=O)CC[C@H](NC(=O)c1c(O)c(=O)[nH]c2ccc(OC(F)(F)F)cc12)C(=O)OC [Compound 9] ?
Completion: 43.5

* * *

# study.target: human phenylalanine hydroxylase (hPAH) (Homo sapiens, UniProt P00439)
# Construct: Recombinant full-length wild-type (WT) hPAH was expressed in E. coli Top10 cells in fusion with a hexa-histidyl peptide; made in house; host or cells: E. coli Top10
# assay.name: hPAH enzymatic activity assay (NA, 3HQ-A and Phe/3HQ-A conditions)
# Type: biochemical
# experimental.setup: 100 μM compound
For each entry below, report its fold enzyme activation by compound (3HQ-A vs. NA) value.
Only the number, expressed in fold, is required.

Prompt: Fill in the blank: the reported fold enzyme activation by compound (3HQ-A vs. NA) of COC(=O)CNC(=O)c1c(O)c(=O)[nH]c2ccc(OC(F)(F)F)cc12 is ____.
Completion: 1.6

Prompt: Similarly, COC(=O)[C@H](CC(C)C)NC(=O)c1c(O)c(=O)[nH]c2ccc(OC(F)(F)F)cc12 ?
Completion: 0.9

Prompt: Similarly, O=C(CNC(=O)c1c(O)c(=O)[nH]c2ccc(OC(F)(F)F)cc12)OCc1ccccc1 ?
Completion: 0.6

* * *

For each entry below, report its Tm2 (catalytic domain) value.
# study.target: human phenylalanine hydroxylase (hPAH) (Homo sapiens, UniProt P00439)
# Construct: Recombinant full-length wild-type (WT) hPAH was expressed in E. coli Top10 cells in fusion with a hexa-histidyl peptide; made in house; host or cells: E. coli Top10
# Sequence (P00439 1-452): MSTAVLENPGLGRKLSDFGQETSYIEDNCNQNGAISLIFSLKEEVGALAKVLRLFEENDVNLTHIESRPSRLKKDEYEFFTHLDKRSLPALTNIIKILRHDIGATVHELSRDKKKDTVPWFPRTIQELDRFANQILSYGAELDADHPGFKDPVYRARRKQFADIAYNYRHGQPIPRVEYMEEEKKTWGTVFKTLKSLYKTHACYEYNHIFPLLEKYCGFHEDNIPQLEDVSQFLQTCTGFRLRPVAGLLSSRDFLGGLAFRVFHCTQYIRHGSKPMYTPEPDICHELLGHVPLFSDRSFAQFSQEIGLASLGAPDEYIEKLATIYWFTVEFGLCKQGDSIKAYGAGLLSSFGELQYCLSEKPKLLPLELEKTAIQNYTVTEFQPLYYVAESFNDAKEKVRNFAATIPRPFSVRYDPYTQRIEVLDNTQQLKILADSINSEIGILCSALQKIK
# assay.name: Differential scanning fluorimetry (thermal denaturation)
# Format: binding
# experimental.setup: 100 μM compound in 1% DMSO; control 53.5 ± 0.4
Only the number, expressed in °C, is required.

Prompt: Fill in the blank: the reported Tm2 (catalytic domain) of COC(=O)CC[C@H](NC(=O)c1c(O)c(=O)[nH]c2ccc(OC(F)(F)F)cc12)C(=O)OC is ____.
Completion: 53.0

Prompt: Similarly, O=C(c1c(O)c(=O)[nH]c2ccc(OC(F)(F)F)cc12)N1CCCCC1 ?
Completion: 53.2

Prompt: Similarly, COC(=O)CNC(=O)c1c(O)c(=O)[nH]c2ccc(OC(F)(F)F)cc12 ?
Completion: 53.6

Prompt: Similarly, O=C(Nc1ccccc1)c1c(O)c(=O)[nH]c2ccc(OC(F)(F)F)cc12 ?
Completion: 42.3

Prompt: Similarly, CCOC(=O)[C@H](Cc1ccccc1)NC(=O)c1c(O)c(=O)[nH]c2ccc(OC(F)(F)F)cc12 ?
Completion: 53.6

Prompt: Similarly, CC(CCc1ccccc1)OC(=O)c1c(O)c(=O)[nH]c2ccc(OC(F)(F)F)cc12 (centres unmarked) ?
Completion: 35.5

Prompt: Similarly, CCOC(=O)[C@H](Cc1ccccc1)NC(=O)c1c(O)c(=O)[nH]c2ccccc12 ?
Completion: 55.9

Prompt: Similarly, O=C(CNC(=O)c1c(O)c(=O)[nH]c2ccc(OC(F)(F)F)cc12)OCc1ccccc1 ?
Completion: 53.1

* * *

# study.target: human phenylalanine hydroxylase (hPAH) (Homo sapiens)
# Construct: Recombinant full-length wild-type (WT) hPAH was expressed in E. coli Top10 cells in fusion with a hexa-histidyl peptide; made in house; host or cells: E. coli Top10
# assay.name: Differential scanning fluorimetry (thermal denaturation)
# Format: binding
# experimental.setup: 100 μM compound in 1% DMSO; control 43.4 ± 0.6
recorded.metric: Tm1 (regulatory domain)
Express your answer as a number followed by its unit.

Prompt: Fill in the blank: the reported Tm1 (regulatory domain) of CC(C)(C)OC(=O)c1c(O)c(=O)[nH]c2ccc(OC(F)(F)F)cc12 [Compound 17] is ____.
Completion: 44.6 ± 0.2 °C

Prompt: Similarly, O=C(NCc1ccccc1)c1c(O)c(=O)n(Cc2ccccc2)c2ccccc12 [Compound 14] ?
Completion: 44.8 ± 0.1 °C

Prompt: Similarly, CC(CCc1ccccc1)OC(=O)c1c(O)c(=O)[nH]c2ccc(OC(F)(F)F)cc12 (stereo not shown) [Compound 19] ?
Completion: 33.0 ± 0.3 °C

Prompt: Similarly, O=C(c1ccccc1)c1c(O)c(=O)[nH]c2ccc(OC(F)(F)F)cc12 [Compound 20] ?
Completion: 44.2 ± 0.1 °C

Prompt: Similarly, CC(OC(=O)c1c(O)c(=O)[nH]c2ccc(OC(F)(F)F)cc12)c1ccccc1 (stereo not shown) [Compound 18] ?
Completion: 40.0 ± 1.0 °C

Prompt: Similarly, O=C(NCc1ccccc1)c1c(O)c(=O)[nH]c2ccc(OC(F)(F)F)cc12 [Compound 6] ?
Completion: 42.5 ± 0.2 °C

Prompt: Similarly, CCOC(=O)[C@H](Cc1ccccc1)NC(=O)c1c(O)c(=O)[nH]c2ccc(OC(F)(F)F)cc12 [Compound 3] ?
Completion: 51.7 ± 0.4 °C

Prompt: Similarly, O=C(c1c(O)c(=O)[nH]c2ccc(OC(F)(F)F)cc12)N1CCCCC1 [Compound 16] ?
Completion: 45.0 ± 1.9 °C

Prompt: Similarly, COC(=O)CNC(=O)c1c(O)c(=O)[nH]c2ccc(OC(F)(F)F)cc12 [Compound 11] ?
Completion: 47.4 ± 0.1 °C

Prompt: Similarly, O=C(CNC(=O)c1c(O)c(=O)[nH]c2ccc(OC(F)(F)F)cc12)OCc1ccccc1 [Compound 12] ?
Completion: 43.8 ± 0.1 °C

Prompt: Similarly, CCOC(=O)CNC(=O)c1c(O)c(=O)n(Cc2ccccc2)c2ccccc12 [Compound 13] ?
Completion: 44.6 ± 0.4 °C

Prompt: Similarly, O=C(Nc1ccccc1)c1c(O)c(=O)[nH]c2ccc(OC(F)(F)F)cc12 [Compound 5] ?
Completion: 38.7 ± 0.2 °C

Prompt: Similarly, COC(=O)[C@H](CC(C)C)NC(=O)c1c(O)c(=O)[nH]c2ccc(OC(F)(F)F)cc12 [Compound 10] ?
Completion: 43.1 ± 0.5 °C

Prompt: Similarly, O=C(c1c(O)c(=O)[nH]c2ccc(OC(F)(F)F)cc12)N1CCCC1 [Compound 15] ?
Completion: 44.5 ± 0.8 °C

Prompt: Similarly, CN(Cc1ccccc1)C(=O)c1c(O)c(=O)[nH]c2ccc(OC(F)(F)F)cc12 [Compound 7] ?
Completion: 43.3 ± 0.1 °C

Prompt: Similarly, CCOC(=O)[C@H](Cc1ccccc1)NC(=O)c1c(O)c(=O)n(Cc2ccccc2)c2ccc(OC(F)(F)F)cc12 [Compound 4] ?
Completion: 37.8 ± 1.9 °C

Just for reference, paper PMC8003416 is where these values come from.
